Hello, the source for this data is ChEMBL document CHEMBL1125983, in case you need it.

Tyrosine-protein kinase Lck (Homo sapiens) IC50 data
Sequence (P06239 whole entry): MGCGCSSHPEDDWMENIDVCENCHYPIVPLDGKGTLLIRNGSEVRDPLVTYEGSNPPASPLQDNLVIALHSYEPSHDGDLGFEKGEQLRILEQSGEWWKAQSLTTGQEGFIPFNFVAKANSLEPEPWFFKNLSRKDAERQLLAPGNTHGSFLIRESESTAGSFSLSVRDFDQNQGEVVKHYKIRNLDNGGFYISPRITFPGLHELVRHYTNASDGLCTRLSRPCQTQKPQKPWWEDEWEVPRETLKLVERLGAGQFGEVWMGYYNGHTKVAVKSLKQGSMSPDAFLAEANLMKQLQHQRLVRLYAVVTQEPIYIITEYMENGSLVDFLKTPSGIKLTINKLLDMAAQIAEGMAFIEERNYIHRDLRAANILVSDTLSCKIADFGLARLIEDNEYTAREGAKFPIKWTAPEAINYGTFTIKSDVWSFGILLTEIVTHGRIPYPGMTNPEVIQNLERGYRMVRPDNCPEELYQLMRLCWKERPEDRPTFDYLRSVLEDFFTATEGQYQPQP
ASSAY METRIC: IC50 (mM)

[
  {
    "CHEMICAL STRUCTURE": "Oc1ccc(/C=N/Nc2ccccn2)c(O)c1",
    "UNIT SPEC": "mM",
    "VALUE PREFIX": "=",
    "REPORTED MEASUREMENT": 1.01
  },
  {
    "CHEMICAL STRUCTURE": "O=[N+]([O-])c1ccc(/C=N/Nc2ccccc2)cc1",
    "UNIT SPEC": "mM",
    "VALUE PREFIX": ">",
    "REPORTED MEASUREMENT": 3.32
  },
  {
    "CHEMICAL STRUCTURE": "O=[N+]([O-])c1ccc(N/N=C/c2ccc(O)cc2O)c([N+](=O)[O-])c1",
    "UNIT SPEC": "mM",
    "VALUE PREFIX": "=",
    "REPORTED MEASUREMENT": 1
  },
  {
    "CHEMICAL STRUCTURE": "C(=N\\Nc1ccccc1)/c1ccccn1",
    "UNIT SPEC": "mM",
    "VALUE PREFIX": ">",
    "REPORTED MEASUREMENT": 4.06
  },
  {
    "CHEMICAL STRUCTURE": "Oc1ccc(/C=N/Nc2ccccc2)c(O)c1O",
    "UNIT SPEC": "mM",
    "VALUE PREFIX": "=",
    "REPORTED MEASUREMENT": 1.57
  },
  {
    "CHEMICAL STRUCTURE": "Oc1ccc(/C=N/Nc2ccc(Br)cc2)c(O)c1O",
    "UNIT SPEC": "mM",
    "VALUE PREFIX": "=",
    "REPORTED MEASUREMENT": 1.04
  }
]

====

Tyrosine-protein kinase Lck (Homo sapiens) pIC50 data
pIC50: −log10 of the molar value.
ASSAY METRIC: pIC50

[
  {
    "CHEMICAL STRUCTURE": "Oc1ccc(/C=N/Nc2ccccn2)c(O)c1O",
    "VALUE PREFIX": "=",
    "REPORTED MEASUREMENT": 3.28
  },
  {
    "CHEMICAL STRUCTURE": "Oc1cc(/C=N/Nc2ccccn2)cc(O)c1O",
    "VALUE PREFIX": "=",
    "REPORTED MEASUREMENT": 3.75
  },
  {
    "CHEMICAL STRUCTURE": "COc1ccc(N/N=C/c2cccc(O)c2O)cc1",
    "VALUE PREFIX": "=",
    "REPORTED MEASUREMENT": 3.51
  },
  {
    "CHEMICAL STRUCTURE": "O=[N+]([O-])c1cccc(/C=N/Nc2ccccc2)c1",
    "VALUE PREFIX": "<",
    "REPORTED MEASUREMENT": 2.48
  },
  {
    "CHEMICAL STRUCTURE": "COc1ccc(N/N=C/c2cc(O)ccc2O)cc1",
    "VALUE PREFIX": "=",
    "REPORTED MEASUREMENT": 3.51
  },
  {
    "CHEMICAL STRUCTURE": "O=[N+]([O-])c1ccc(N/N=C/c2cccc(O)c2O)c([N+](=O)[O-])c1",
    "VALUE PREFIX": "<",
    "REPORTED MEASUREMENT": 2.60
  },
  {
    "CHEMICAL STRUCTURE": "Oc1ccc(/C=N/Nc2ccccc2)c(O)c1",
    "VALUE PREFIX": "=",
    "REPORTED MEASUREMENT": 3.46
  },
  {
    "CHEMICAL STRUCTURE": "Oc1ccc(Br)cc1/C=N/Nc1ccc(Br)cc1",
    "VALUE PREFIX": "<",
    "REPORTED MEASUREMENT": 2.67
  },
  {
    "CHEMICAL STRUCTURE": "O=[N+]([O-])c1ccc(N/N=C/c2ccc(O)c(O)c2O)c([N+](=O)[O-])c1",
    "VALUE PREFIX": "=",
    "REPORTED MEASUREMENT": 3.84
  },
  {
    "CHEMICAL STRUCTURE": "COc1ccc(/C=N/Nc2ccc(Br)cc2)cc1O",
    "VALUE PREFIX": "<",
    "REPORTED MEASUREMENT": 2.60
  }
]
